ASSAY_TARGET: T1, human GITR (amino acids M1-V241, NCBI Accession #NP_004186.1) expressed on cells (human, UniProt Q9Y5U5 26-241)
T1 sequence: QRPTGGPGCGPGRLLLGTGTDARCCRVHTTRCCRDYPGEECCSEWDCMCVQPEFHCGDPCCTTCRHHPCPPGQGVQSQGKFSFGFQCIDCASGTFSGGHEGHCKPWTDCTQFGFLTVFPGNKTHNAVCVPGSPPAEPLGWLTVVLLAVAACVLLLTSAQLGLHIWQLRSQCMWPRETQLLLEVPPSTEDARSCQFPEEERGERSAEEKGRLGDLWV
PROTOCOL_DETAILS: cell-based or functional assay
PROPERTY_NAME: EC50, hGITR activation, NF-kB-Luc, non-anchored (nM)
Lab book: enter the figure in nM, no units written.

H1H14523P (antibody, human IgG1, V domains shown, human IgG1 (H1H)) VH: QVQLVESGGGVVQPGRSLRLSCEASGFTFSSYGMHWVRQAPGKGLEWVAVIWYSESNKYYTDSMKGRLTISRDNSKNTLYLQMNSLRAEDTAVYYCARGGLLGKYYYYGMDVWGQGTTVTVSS VL: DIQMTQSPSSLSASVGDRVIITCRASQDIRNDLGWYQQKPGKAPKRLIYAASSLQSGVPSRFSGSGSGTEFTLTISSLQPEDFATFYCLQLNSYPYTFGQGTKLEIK | 2.5

// below: EC50, hGITR activation, NF-kB-Luc, non-anchored requested for another binder
Q) Please look up its EC50, hGITR activation, NF-kB-Luc, non-anchored: H4H14525P (antibody, human IgG4, V domains shown, human IgG4 (H4H)) VH: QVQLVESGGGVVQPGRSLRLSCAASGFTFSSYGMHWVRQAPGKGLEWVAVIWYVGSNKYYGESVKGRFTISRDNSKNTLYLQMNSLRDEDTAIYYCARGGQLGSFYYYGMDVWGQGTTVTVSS VL: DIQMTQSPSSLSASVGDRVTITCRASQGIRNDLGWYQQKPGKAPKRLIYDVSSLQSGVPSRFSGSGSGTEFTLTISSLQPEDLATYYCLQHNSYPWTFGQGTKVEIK
A) 1.1
